Target: hALDH2 (UniProt P05091)
Test: ALDH-2 assay (inhibition of hALDH2)
Type: biochemical, human
Quick reference for IC50 among some molecules

# molecule, test-system, IC50
rows = [
    ("O=c1c2ccc(OCc3noc(-c4ccccc4)n3)cc2ncn1-c1ccc(O)cc1", "hALDH2 (UniProt P05091)", "107 nM"),
    ("O=c1c2ccc(OCc3noc(-c4cc(F)cc(C(F)(F)F)c4)n3)cc2ncn1-c1ccc(O)cc1", "hALDH2 (UniProt P05091)", "70 nM"),
    ("O=C(O)c1cccc(COc2ccc3c(=O)n(-c4ccc(O)cc4)cnc3c2)c1 [Example 3A]", "hALDH2 (UniProt P05091)", "136 nM"),
    ("COc1ccccc1-c1nc(COc2ccc3c(=O)n(-c4ccc(O)cc4)cnc3c2)no1", "hALDH2 (UniProt P05091)", "90 nM"),
]
